stated_conditions: buffer; pH 7.4; 200.0 µM
Each item that follows carries a reported log10(solubility kinetic).
Would you kindly interpret these values as log10 of solubility kinetic expressed in µg/mL?

Look over these answered cases.
Fc1ccc(-c2ncc3ccccn23)cc1; 1.16
CC1(C)C(=O)Nc2ccccc2N1C(=O)COC(=O)c1cccc(O)c1; 1.31
CCOc1ccc(N2CC(C(=O)NCCc3ccc(F)cc3)CC2=O)cc1 (stereo not given); 1.49
Cc1ccc(/C=C2\C(=O)NC(=S)N(c3cccc(F)c3)C2=O)o1; 1.63
Cc1c(C(=O)Cc2ccccc2)n(C)c2ccccc12; 0.40

query: Tell me its log10(solubility kinetic) given `Cc1ccc(NC(=O)Nc2cnccn2)cc1C` as the entry.
result: 0.98

query: Look up log10(solubility kinetic) of `O=C(COc1ncnc2ccccc12)Nc1cccc([N+](=O)[O-])c1` and report it.
result: 1.18

* * *

stated_conditions: buffer; pH 7.4; 200.0 µM
endpoint: solubility kinetic

Before answering, review these 5 worked examples.
CC(CC(=O)Nc1cccnc1)c1ccccc1 (centres undefined); > 36 µg/mL
C=CCn1c(O)c(C=NC2CCN(Cc3ccccc3)CC2)c(=O)[nH]c1=O; 54.1 µg/mL
Cc1ccc(NCCC(=O)c2ccccc2)cc1Cl; < 0.6 µg/mL
COc1cccc(C(=O)OCC(=O)NCC2CCCO2)c1 (centres undefined); > 44 µg/mL
O=C(c1cccc(S(=O)(=O)NCc2ccccc2)c1)N1CCCC1; > 51.7 µg/mL

query: Indicate its recorded solubility kinetic; the compound in question is `CCCCNC(=S)N1CCN(c2ccccc2Cl)CC1`
result: 13.1 µg/mL

query: Assign solubility kinetic to the following record: `CN(C)c1cc(Nc2cccc(O)c2)c([N+](=O)[O-])c2nonc12`
result: 0.4 µg/mL

query: Could you please provide reported solubility kinetic for COc1ccc(NC(=O)C2C3C=CC(O3)C2C(=O)O)cc1 (centres undefined) ? Thanks!
result: > 43.4 µg/mL

query: Answer with reported solubility kinetic of CC(=O)NC(NC(=S)Nc1ccc(S(N)(=O)=O)cc1)C(Cl)(Cl)Cl (centres undefined)
result: 62.6 µg/mL

query: Please supply the value of reported solubility kinetic for the item `CCc1noc(N)c1C(=O)Nc1ccc(Cl)cc1`
result: > 39.9 µg/mL

query: Determine its reported solubility kinetic: `COc1cccc(CNc2nc3ccccc3n2C(C)C)c1O`
result: 2.2 µg/mL

* * *

Catalogue of molecules with associated solubility kinetic
stated_conditions: buffer; pH 7.4; 200.0 µM

Below, 5 molecules whose answers are already recorded.
COCCCNC(=O)c1cc(S(=O)(=O)NCCCN2CCCC2=O)ccc1Cl; > 64.8 µg/mL
O=S(=O)(N=C(NS(=O)(=O)c1ccc(Cl)cc1)c1ccccc1)c1ccc(Cl)cc1; > 70.4 µg/mL
CC[C@H](C)[C@H](NC(N)=O)C(=O)NCCc1ccc(OC)cc1; > 46.1 µg/mL
Cc1ccc(C2(C)NC(=O)N(CC(=O)Nc3ccc4c(c3)CCC4)C2=O)cc1 (stereo unspecified); 3.5 µg/mL
O=C(Oc1coc(CSc2ncccn2)cc1=O)c1ccco1; 46.5 µg/mL

query: Could you please provide reported solubility kinetic for `N/C(=N\OC(=O)/C=C/c1ccccc1Cl)c1cccnc1` ? Thanks!
result: 14.9 µg/mL

query: Tell me its solubility kinetic given `O=C(CCc1ccccc1)Nc1ccc2c(c1)OCO2` as the entry.
result: 26.6 µg/mL
